# test_system: T1, human IgE with the M1′ sequence (long form of membrane IgE) expressed on transduced BJAB or Daudi cells (human, UniProt P01854 116-546)
# T1 construct: Full-length heavy and light chains of the U266 IgE B cell receptor, retrovirally expressed; also called IgE/M1′; IgE-M1′
# T1 sequence (P01854 116-546 I515L limits assumed): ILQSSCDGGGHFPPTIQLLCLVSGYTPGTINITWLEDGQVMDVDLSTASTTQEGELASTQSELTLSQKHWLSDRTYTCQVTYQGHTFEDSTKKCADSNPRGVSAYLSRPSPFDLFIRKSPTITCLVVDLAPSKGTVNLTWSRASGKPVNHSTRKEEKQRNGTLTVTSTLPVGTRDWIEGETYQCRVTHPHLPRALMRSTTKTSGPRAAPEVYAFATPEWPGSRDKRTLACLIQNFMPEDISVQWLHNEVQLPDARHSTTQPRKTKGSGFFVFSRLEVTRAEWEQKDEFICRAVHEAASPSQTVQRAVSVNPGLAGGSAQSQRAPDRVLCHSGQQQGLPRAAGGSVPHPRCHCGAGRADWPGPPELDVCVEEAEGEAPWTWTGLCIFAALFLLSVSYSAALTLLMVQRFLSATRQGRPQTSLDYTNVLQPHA
# assay_overview: competitive ECL binding on BJAB-IgE/M1′ cells vs biotinylated 26A11 or 47H4, 1st IC50 column
test_readout: IC50 (nM)
Answer with a number only, understood to be in nM.

Qu. Need IC50, item murine anti-IgE/M1′ antibody 26A11 (antibody, V domains shown, mIgG1 hybridoma antibody; also called mu26A11; 26A11 mIgG1) VH: EVQLQQSGPELVKPGASVKMSCKASGYTFTDYYMMWVKQSHGKSLEWIGDINPNNYDTSYNQKFKGKATLTVDKSSSTAYIQLNSLTSEDSAVYYCASKAYWGQGTLVTVSA VL: DIQMTQTTSSLSASLGDRVTITCRSSQDISNSLNWYQQKPDGPVKLLIYSTSRLHSGVPSRFSGSGSGTDYSLTISNLEQEDLATYFCQQGHTLPWTFGGGTKVEIKR
Ans. 12

Qu. And for humanized anti-IgE/M1′ antibody 26A11.v1 (antibody, V domains shown, direct CDR graft, produced as IgG in 293 cells) VH: EVQLVESGGGLVQPGGSLRLSCAASGYTFTDYYMMWVRQAPGKGLEWVGDINPNNYDTSYNQKFKGRFTISADTSKNTAYLQMNSLRAEDTAVYYCASKAYWGQGTLVTVSS VL: DIQMTQSPSSLSASVGDRVTITCRSSQDISNSLNWYQQKPGKAPKLLIYSTSRLHSGVPSRFSGSGSGTDFTLTISSLQPEDFATYYCQQGHTLPWTFGQGTKVEIKR ?
Ans. 15

FYI, the data here is from patent US20120149881A1.
